- study-target: beta-klotho
- protocol-description: cell-based or functional assay
Recorded In Vitro Activity EC50, ELK-luciferase assay for the following binders
Give the value, in units of nM, as a plain number.

Input line: I am curious: what In Vitro Activity EC50, ELK-luciferase assay value has been reported for FGF21(K56R/K59R/K122R), 2 x 20k PEG (ligand, two 20k PEG (amine-specific): N-terminus and the one remaining lysine (Lys 69)) MHPIPDSSPLLQFGGQVRQRYLYTDDAQQTEAHLEIREDGTVGGAADQSPESLLQLRALRPGVIQILGVKTSRFLCQRPDGALYGSLHFDPEACSFRELLLEDGYNVYQSEAHGLPLHLPGNRSPHRDPAPRGPARFLPLPGLPPAPPEPPGILAPQPPDVGSSDPLSMVGPSQGRSPSYAS ?
Output line: 531

Attention now turns to another entry.
Input line: I am curious: what In Vitro Activity EC50, ELK-luciferase assay value has been reported for FGF21(all K to all R, R77K), 2 x 20k PEG (ligand, two 20k PEG (amine-specific): N-terminus and Lys 77) MHPIPDSSPLLQFGGQVRQRYLYTDDAQQTEAHLEIREDGTVGGAADQSPESLLQLRALRPGVIQILGVRTSRFLCQKPDGALYGSLHFDPEACSFRELLLEDGYNVYQSEAHGLPLHLPGNRSPHRDPAPRGPARFLPLPGLPPAPPEPPGILAPQPPDVGSSDPLSMVGPSQGRSPSYAS ?
Output line: 175
